Please go through the items and note down their pKd.
- Measured on: Ajovy (IgG2 monoclonal antibody)
- Assay explanation: BLI, biotinylated ligand on sensor; 'Binding affinity (nM)'
Note on units: pKd is unitless, being -log10 of a concentration expressed in mol/L.

Asked: Supply pKd value. Item: affinity ligand SEQ ID NO: 160 (designed binder, biotinylated (AviTag system)) MGHHHHHHDEAERWYDLGAAYAARGDYDRAIEYYQRALELDPNDAWAWWELGVAYAARGDYDRAIEYYQRALELDLNNAVAWARLGIAYAARGDYDRAIEYYQRALELDPNNEVARDALEYARRARRC
Given back: 6.27

Asked: Output measured pKd for this item: affinity ligand SEQ ID NO: 158 (designed binder, biotinylated (AviTag system)) MGDEAERWYDLGAAYAARGDYDRAIEYYQRALELDPNDAWAWWELGVAYAARGDYDRAIEYYQRALELDLNNAVAWARLGIAYAARGDYDRAIEYYQRALELDPNNEVARDALEYARRARRCHHHHHH
Given back: 6.55

Asked: Quote pKd reported for affinity ligand SEQ ID NO: 157 (designed binder, biotinylated (AviTag system)) MGLAEAAAREAAARAADEAERWYDLGAAYAARGDYDRAIEYYQRALEHDPNDAWAWWELGVAYAARGDYDRAIEYYQRALELDTNNAVAWARLGIAYAARGDYDRAIEYYQRALELDPNNEVARGALEYARRARRHHHHHH please.
Given back: 6.57

Asked: Please look at this binder and report its pKd: affinity ligand SEQ ID NO: 161 (designed binder, biotinylated (AviTag system)) MAWAEFRQRLAAIRTRLEALGGSEAELAAFEREIAAFESELQAYAGAGNPEVEALRREAAAIRDELQAYRHNDEAERWYDLGAAYAARGDYDRAIEYYQRALELDPNDAWAWWELGVAYAARGDYDRAIEYYQRALELDLNNAVAWARLGIAYAARGDYDRAIEYYQRALELDPNNEVARDALEYARRARRHHHHHH
Given back: 6.18

Asked: Indicate its recorded pKd; the binder in question is affinity ligand SEQ ID NO: 155 (designed binder, biotinylated (AviTag system)) MGDEAERWYDLGAAYAARGDYDRAIEYYQRALEHDPNDAWAWWELGVAYAARGDYDRAIEYYQRALELDTNNAVAWARLGIAYAARGDYDRAIEYYQRALELDPNNEVARGALEYARRARRCHHHHHH
Given back: 6.93

Asked: Name the recorded pKd of the item affinity ligand SEQ ID NO: 154 (designed binder, biotinylated (AviTag system)) MGDEAERWYDLGAAYAARGDYDRAIEYYQRALELDPNDAWAWWELGVAYAARGDYDRAIEYYQRALELDPNNAVAWARLGIAYAARGDYDRAIEYYQRALELDPNNEVARDALEYARRARRCHHHHHH in your answer.
Given back: 7.04

Asked: Tell us which pKd value is on record for affinity ligand SEQ ID NO: 156 (designed binder, biotinylated (AviTag system)) MAWAEFRQRLAAIRTRLEALGGSEAELAAFEREIAAFESELQAYAGAGNPEVEALRREAAAIRDELQAYRHNDEAERWYDLGAAYAARGDYDRAIEYYQRALEHDPNDAWAWWELGVAYAARGDYDRAIEYYQRALELDTNNAVAWARLGIAYAARGDYDRAIEYYQRALELDPNNEVARGALEYARRARRHHHHHH
Given back: 6.65

Asked: Provide pKd value for the following binder: affinity ligand SEQ ID NO: 162 (designed binder, biotinylated (AviTag system)) MGLAEAAAREAAARAADEAERWYDLGAAYAARGDYDRAIEYYQRALELDPNDAWAWWELGVAYAARGDYDRAIEYYQRALELDLNNAVAWARLGIAYAARGDYDRAIEYYQRALELDPNNEVARDALEYARRARRHHHHHH
Given back: 6.18

Asked: # return recorded pKd for entry affinity ligand SEQ ID NO: 159 (designed binder, biotinylated (AviTag system)) MGHHHHHHDEAERWYDLGAAYAARGDYDRAIEYYQRALEHDPNDAWAWWELGVAYAARGDYDRAIEYYQRALELDTNNAVAWARLGIAYAARGDYDRAIEYYQRALELDPNNEVARGALEYARRARRC
Given back: 6.36
